experiment: Plasma pharmacokinetics and brain distribution after single IV, IP and oral administration; assay type: in vivo; settings: male, C57BL/6, mouse, in vivo, po, 10 mg/kg, Brain concentration, individual animal
Counter-ions that a name gives are not always drawn.
readoutType: concentration at 24 h (ng/g)
Output spec: scalar in ng/g, unitless text.

Solved cases below.
# molecule, concentration at 24 h [ng/g]
measured = [
    ("[2H]C([2H])([2H])Oc1ccc(Nc2nc(-c3c(C)nc4ccccn34)cs2)cc1 [Compound 15, hydrochloride]", 0),
    ("[2H]C1([2H])Oc2ccc(Nc3nc(-c4c(C)nc5ccccn45)cs3)cc2O1 [Compound 17, hydrochloride]", 0),
]

Below: the item to evaluate.
Given Cc1nc2ccccn2c1-c1csc(Nc2ccc3c(c2)OC(F)(F)O3)n1 [Compound 16, hydrochloride] , state its recorded concentration at 24 h. 0
